Species: Rattus norvegicus
Test: DrugMatrix - Regimen: Daily Repeat
Assay type: toxicity, organism-based, Sprague-Dawley
Design: regimen Daily Repeat, gender Male, age 6-8 weeks
Settings: in vivo, po, 0 mg/kg, 120 h, tissue Blood, route oral GAVAGE, dose level Control, time 5 day, […]
As shown below, each of these compounds has a reported ABSOLUTE SEGMENTED NEUTROPHIL value.
valueType: ABSOLUTE SEGMENTED NEUTROPHIL (CELLS/uL)

INSERT INTO measurements (compound, unitssymbol, quantitativeresult) VALUES
  ('Cc1cccc(C)c1NC(=O)C(C)N (stereo not given) [TOCAINIDE]', 'CELLS/uL', 527),
  ('CC#C[C@]1(O)CC[C@H]2[C@@H]3CCC4=CC(=O)CCC4=C3[C@@H](c3ccc(N(C)C)cc3)C[C@@]21C', 'CELLS/uL', 646.83),
  ('COc1ccccc1OCCNCC(O)COc1cccc2[nH]c3ccccc3c12 (stereo not given)', 'CELLS/uL', 970),
  ('c1ccc2c(c1)Nc1ccccc1S2', 'CELLS/uL', 1111.83),
  ('Oc1ncnc2[nH]ncc12', 'CELLS/uL', 2551.33),
  ('CCC(C)(C)C(=O)O[C@H]1C[C@@H](C)C=C2C=C[C@H](C)[C@H](CC[C@@H]3C[C@@H](O)CC(=O)O3)[C@H]21', 'CELLS/uL', 646.83),
  ('O=C(O)COC(=O)Cc1ccccc1Nc1c(Cl)cccc1Cl', 'CELLS/uL', 970),
  ('COC(=O)Nc1nc2ccc(C(=O)c3ccccc3)cc2[nH]1', 'CELLS/uL', 970),
  ('CC(C)(c1ccc(O)cc1)c1ccc(O)cc1', 'CELLS/uL', 1049.67),
  ('CS(=O)(=O)c1ccc(C2=C(c3ccccc3)C(=O)OC2)cc1', 'CELLS/uL', 1111.83);

----------
Species on record: Rattus norvegicus
Test: DrugMatrix - Regimen: Daily Repeat
Format: toxicity, organism-based, Sprague-Dawley
Design: regimen Daily Repeat, gender Male, age 6-8 weeks
Conditions: in vivo, po, 0 mg/kg, 72 h, tissue Plasma, route oral GAVAGE, dose level Control, time 3 day, vehicle .5 % CMC
Let's look at some molecules and their measured ASPARTATE AMINOTRANSFERASE.
valueType: ASPARTATE AMINOTRANSFERASE (u/L)

INSERT INTO assay_data (molecule, quantitativeresult) VALUES
  ('CCN1C[C@]2(COC)[C@H](O)C[C@H](OC)[C@@]34[C@@H]5C[C@@]6(O)[C@H](OC(=O)c7ccccc7)[C@@H]5[C@@](OC(C)=O)([C@@H]([C@H](OC)[C@H]23)[C@@H]14)[C@@H](O)[C@@H]6OC', 68),
  ('CCN1CCN(c2cc3c(cc2F)c(=O)c(C(=O)O)cn3C2CC2)CC1', 69.5),
  ('O=C1c2ccccc2C(=O)C1c1ccccc1', 68),
  ('COc1cc(NC(C)CCCN)c2ncccc2c1 (stereo not given)', 69.83),
  ('CCN(CC)CCNC(=O)c1cc(Cl)c(N)cc1OC [METOCLOPRAMIDE]', 69.5);

----------
Species on record: Rattus norvegicus
Assay: DrugMatrix - Regimen: Daily Repeat
Assay type: toxicity, organism-based, Sprague-Dawley
Design: regimen Daily Repeat, gender Male, age 6-8 weeks
Details: in vivo, po, 0 mg/kg, 120 h, tissue Plasma, route oral GAVAGE, dose level Control, time 5 day, vehicle 100 % WATER
valueType: BLOOD UREA NITROGEN

INSERT INTO measurements (compoundstructure, result) VALUES
  ('C1CCN2C[C@@H]3C[C@@H](CN4CCCC[C@@H]34)[C@H]2C1', '16.17 mg/dL'),
  ('CCN(CC)C(=S)SSC(=S)N(CC)CC', '15.33 mg/dL'),
  ('CN1C(=O)OC(C)(C)C1=O', '16.33 mg/dL');
